- Assay Info: physchem
- Measurement Parameters: water
Quantity: solubility (µg/mL)
Record the value in µg/mL, omitting the unit from your answer.

What value of solubility has been reported for the following compound? C[C@@H]1C[C@H]2[C@@H]3CCC4=CC(=O)C=C[C@]4(C)[C@@]3(F)[C@@H](O)C[C@]2(C)[C@@]1(O)C(=O)CO [dexamethasone, reference compound]
100

---

- Tested on: GRE promoter construct (pGRE-SEAP)
- Assay Info: Induction of transcription from GRE (GRE-SEAP promoter construct) in 293 cells
- Type: cell-based
- Measurement Parameters: Homo sapiens, HEK293, read-out: EC50 of transcription from GRE promoter construct (pGRE-SEAP)
Quantity: EC50

Any idea what EC50 was measured for CC1C[C@H]2[C@@H]3CCC4=CC(=O)C=C[C@]4(C)[C@@]3(F)C(O)C[C@]2(C)[C@@]1(O)C(=O)CSCCCC(=N)NCCCNCCCCNCCCN.O=C(O)C(F)(F)F (stereo partly shown) ?
10 to 100 nM
